Assignment: determine reported Population Healthy Nuclei (%) for the given molecules.
tested on: U2OS; test: Multiplex assay against U2OS; format: toxicity, cell-based; details: human, 48 h, 10 µM, compound concentration 10 uM, replicate 2
Entry rule: numbers only, all in %.

What Population Healthy Nuclei (%) appears in the records for this molecule with U2OS? COCC(=O)NC/C=C/c1ccc2ncnc(Nc3ccc(Oc4ccc(C)nc4)c(C)c3)c2c1
52

What Population Healthy Nuclei (%) appears in the records for this molecule with U2OS? O=C(Nc1ccc(-n2nc(-c3cccnc3)cc2C(F)(F)F)cn1)c1ccc(-c2ccccc2)c(F)c1
85

What Population Healthy Nuclei (%) appears in the records for this molecule with U2OS? CN1C2CCC1CC(OC(c1ccc(F)cc1)c1ccc(F)cc1)C2.Cl (centres undefined)
75

What Population Healthy Nuclei (%) appears in the records for this molecule with U2OS? CCCS(=O)(=O)c1nc(NC2CC2)cc(-c2ccc3c(ccn3C3CC(C)(C)NC(C)(C)C3)c2)n1
15

What Population Healthy Nuclei (%) appears in the records for this molecule with U2OS? Cl.Oc1ccc2c3c1O[C@H]1c4[nH]c5c(c4C[C@@]4(O)[C@@H](C2)N(CC2CC2)CC[C@]314)C[C@@]1(O)[C@H]2Cc3ccc(O)c4c3[C@@]1(CCN2CC1CC1)[C@H]5O4
73

What Population Healthy Nuclei (%) appears in the records for this molecule with U2OS? O=C(Nc1ccc(Cl)cc1)Nc1cccc(-c2cccc(N3CCCC3)n2)c1
26

What Population Healthy Nuclei (%) appears in the records for this molecule with U2OS? Cc1ccc(C(=O)Nc2cccc(C(F)(F)F)c2)cc1Nc1nc(-c2cccnc2)nc2c1cnn2C
21

What Population Healthy Nuclei (%) appears in the records for this molecule with U2OS? C=C1/C(=C\C=C2/CCC[C@]3(C)[C@@H]([C@H](C)/C=C/[C@H](C)C(C)C)CC[C@@H]23)C[C@@H](O)C[C@@H]1O
79

What Population Healthy Nuclei (%) appears in the records for this molecule with U2OS? S=C(NCCCc1c[nH]cn1)NCCCN(Cc1ccc(Cl)c(Cl)c1)c1ccc(Br)cn1
41

What Population Healthy Nuclei (%) appears in the records for this molecule with U2OS? CCc1cccc(CC)c1NC(=O)c1nn(C)c2c1CCc1cnc(Nc3ccc(C(=O)NC4CCN(C)CC4)cc3OC(F)(F)F)nc1-2
51

What Population Healthy Nuclei (%) appears in the records for this molecule with U2OS? O=C1N/C(=N/c2ccccc2F)S/C1=C\c1ccc(C(=O)O)cc1
83

What Population Healthy Nuclei (%) appears in the records for this molecule with U2OS? O=C(Cc1ccc(-c2ccc(OCCN3CCOCC3)cc2)cn1)NCc1ccccc1
45

What Population Healthy Nuclei (%) appears in the records for this molecule with U2OS? CCOC(=O)c1c(C)[nH]c2ccc3c(c12)CN1CCc2cc(OC)ccc2C1O3 (centres undefined)
45

What Population Healthy Nuclei (%) appears in the records for this molecule with U2OS? Cc1cc(C)c(S(=O)(=O)N(Cc2ccc(-c3cccc(S(C)(=O)=O)c3)cc2)Cc2ccc(C(F)(F)F)o2)c(C)c1
82

What Population Healthy Nuclei (%) appears in the records for this molecule with U2OS? CN1CCC(=C2c3ccccc3CC(=O)c3sccc32)CC1.O=C(O)/C=C/C(=O)O [KETOTIFEN FUMARATE]
63

What Population Healthy Nuclei (%) appears in the records for this molecule with U2OS? Cl.O=c1c2cccn2c2ccccc2n1CCCN1CCC(c2ccc(Cl)cc2)CC1
46

What Population Healthy Nuclei (%) appears in the records for this molecule with U2OS? CCn1c(=O)c(-c2ccc(-c3cncs3)cc2Cl)cc2cnc(Nc3ccc(N4CCN(C)CC4)cc3)nc21
70

What Population Healthy Nuclei (%) appears in the records for this molecule with U2OS? CCN1CCN(Cc2ccc(Nc3ncc(F)c(-c4cc(F)c5nc(C)n(C(C)C)c5c4)n3)nc2)CC1.CS(=O)(=O)O
45

What Population Healthy Nuclei (%) appears in the records for this molecule with U2OS? CCCn1c(=O)c2[nH]c(-c3cnn(Cc4cccc(C(F)(F)F)c4)c3)nc2n(CC)c1=O
80

What Population Healthy Nuclei (%) appears in the records for this molecule with U2OS? Cl.O=C(c1ccc(Nc2nccc(-c3cc4ccccc4s3)n2)cc1)N1CCC(N2CCCC2)CC1
50

What Population Healthy Nuclei (%) appears in the records for this molecule with U2OS? O=C1NC(=O)C(c2cnc3ccccn23)=C1c1cn2c3c(cc(F)cc13)CN(C(=O)N1CCCCC1)CC2
72

What Population Healthy Nuclei (%) appears in the records for this molecule with U2OS? CNc1cc(Oc2cc(C(=O)Nc3cc(N4CCN(C)CC4)cc(C(F)(F)F)c3)ccc2C)ncn1
45

What Population Healthy Nuclei (%) appears in the records for this molecule with U2OS? Cc1cn(-c2cc(NC(=O)c3ccc(C)c(Nc4nccc(-c5cccnc5)n4)c3)cc(C(F)(F)F)c2)cn1
75

What Population Healthy Nuclei (%) appears in the records for this molecule with U2OS? CN1CCN(C(=O)C(C)(C)c2ccc(C(=O)Nc3cn4cc(-c5ccncc5)ccc4n3)cc2)CC1
36
